src = PubChem BioAssay (NCI)

- Test system: CAKI-1 renal
- test.summary: NCI-60 one-dose screen, 48 h
- test.conditions: 10 µM unless noted
About 83,000 compounds went through this panel and 20% of them were active in at least one assay; those are over-represented in the sample as a whole. Active and inactive are the calls of the source. How the source made its calls: active means growth percent below 10; inactive means the rest.
Outcome codes: yes (1) for active, no (0) for inactive

- molecule: "O=C1NCC(=O)N(Cc2ccco2)[C@H]1Cc1ccccc1"
  system: "CAKI-1 renal"
  label.class: "no (0)"
- molecule: "C=C1C(=O)O[C@H]2[C@H]1CC/C(COC(=O)/C=C\\C(=O)NCc1ccc(Cn3c(=O)sn(CCCC)c3=O)cc1)=C\\CC[C@@]1(C)O[C@@H]21"
  system: "CAKI-1 renal"
  label.class: "yes (1)"
- molecule: "O=C(C[C@@]1(O)C(=O)Nc2c(Cl)ccc(Cl)c21)c1ccc(C2CC2)cc1"
  system: "CAKI-1 renal"
  label.class: "no (0)"
- molecule: "COc1cc2ccccc2cc1C(=O)NC(=S)Nc1ccc(-c2nc3ccccc3[nH]2)cc1"
  system: "CAKI-1 renal"
  label.class: "no (0)"
- molecule: "COc1cc(-c2ccc(N=Nc3c(O)c(C(=O)Nc4ccccc4OC)cc4ccccc34)c(OC)c2)ccc1N=Nc1c(O)c(C(=O)Nc2ccccc2OC)cc2ccccc12"
  system: "CAKI-1 renal"
  label.class: "no (0)"
- molecule: "CC(C)(C)N1CC(OC(N)=O)C1"
  system: "CAKI-1 renal"
  label.class: "no (0)"
- molecule: "CCCCCCCCc1cc[n+](CC(=O)c2ccc(Br)cc2)cc1"
  system: "CAKI-1 renal"
  label.class: "no (0)"
- molecule: "CN(C)c1cnccn1"
  system: "CAKI-1 renal"
  label.class: "no (0)"
- molecule: "O=C(CC1Sc2ccccc2NC1=O)NNc1ccc(F)cc1 (stereo not drawn)"
  system: "CAKI-1 renal"
  label.class: "no (0)"
- molecule: "COc1ccc(OC)c(Nc2nc3nonc3nc2Nc2cc(OC)ccc2OC)c1"
  system: "CAKI-1 renal"
  label.class: "no (0)"
- molecule: "CCn1c(Sc2nnc(NC(=O)CSC(=S)N3CCCCC3)s2)nc2c1c(=O)n(C)c(=O)n2C"
  system: "CAKI-1 renal"
  label.class: "no (0)"
- molecule: "C=C(CNCCc1ccc(O)cc1)[C@@H]1CC[C@]2(COC3CCCCO3)CC[C@]3(C)[C@H](CC[C@@H]4[C@@]5(C)CCC(NCCO)C(C)(C)[C@@H]5CC[C@]43C)[C@@H]12 (stereo partly drawn)"
  system: "CAKI-1 renal"
  label.class: "yes (1)"
- molecule: "COc1ccc(/C=N/NC(=O)Cn2c(-c3ccc(S(C)(=O)=O)cc3)nc3cc(Cl)ccc32)cc1"
  system: "CAKI-1 renal"
  label.class: "no (0)"
